Experiment: SAD study pharmacokinetic analysis
Format: in vivo, human
Conditions: male, human, plasma, oral, 100 mg, SAD, KH176 100 mg, fasted; read-out: AUClast (Geomean)

{"Compound": "Cc1c(C)c2c(c(C)c1O)CC[C@@](C)(C(=O)N[C@@H]1CCCNC1)O2.Cl [KH176]", "AUC(0-t)": "1310 ng·h/mL"}

###

Test: SAD study pharmacokinetic analysis
Format: in vivo, human
Conditions: male, human, plasma, oral, 800 mg, SAD, KH176 800 mg, fasted; read-out: Cmax (Geomean)
Reported Property: Cmax (ng/mL)

{"Structure Smiles": "Cc1c(C)c2c(c(C)c1O)CC[C@@](C)(C(=O)N[C@@H]1CCCNC1)O2.Cl", "Numeric Result": 2170}

Reference source for all entries: patent US11285130B2
